Field: LD50. Provide a value for each of the molecules that follow.
# TEST METHOD NOTES: in vivo
# CONDITION SET: mouse, in vivo, po, LD50 by gastric tubage (B), Swiss I.O.P.S. mouse
Response body: numeric value in µmol/kg, unit text excluded.

Req: Determine its reported LD50: Cc1ncc(CO)c(C=NCCS(=O)(=O)O)c1O [Example 11]
Resp: 7700

Req: State its LD50 for this molecule: Cc1ncc(CO)c(CNCCCS(=O)(=O)[O-])c1O.[K+]
Resp: 17000

Req: Please report the measured LD50 for Cc1ncc(CO)c(CNCCS(=O)(=O)[O-])c1O.[K+]
Resp: 15700

Req: Retrieve LD50 measured for Cc1ncc(CO)c(C=NCCCS(=O)(=O)O)c1O [Example 12] and print it.
Resp: 8100

---

# TEST METHOD NOTES: Acute toxicity LD50 oral vs i.p. and B/P ratio, rat
# Format: in vivo
# CONDITION SET: in vivo; Sprague-Dawley I.O.P.S. rat
Please respond with reported selectivity ratio for every item in the list.

Req: Please give the documented selectivity ratio of Cc1ncc(CO)c(C=NCCS(=O)(=O)O)c1O
Resp: 1.5

Req: Please report the measured selectivity ratio for Cc1ncc(CO)c(C=NCCCS(=O)(=O)O)c1O
Resp: 1.66

---

# TEST METHOD NOTES: Solubility
# Assay type: physicochemical
# CONDITION SET: methanol
ENDPOINT: solubility in methanol

Cc1ncc(CO)c(C=NCCCS(=O)(=O)O)c1O [Example 14]: Insoluble
Cc1ncc(CO)c(C=NCCS(=O)(=O)O)c1O [Example 13]: Insoluble

---

# TEST METHOD NOTES: Acute toxicity LD50 oral vs i.p. and B/P ratio, sodium salts (species not restated)
# Format: in vivo
# CONDITION SET: in vivo, oral, read-out: LD50 by gastric tubage (B)
Could you please report measured LD50 for the items listed next?

Req: Give the value of LD50 reported for the following: Cc1ncc(CO)c(CNCCS(=O)(=O)[O-])c1O.[Na+] [Example 2]
Resp: > 20100 µmol/kg

Req: For the molecule Cc1ncc(CO)c(C=NCCS(=O)(=O)O)c1O [Example 1] , give its reported LD50.
Resp: 7000 µmol/kg

Req: Give the measured LD50 for Cc1ncc(CO)c(CNCCCS(=O)(=O)[O-])c1O.[Na+]
Resp: > 19200 µmol/kg

Req: Please give the documented LD50 of Cc1ncc(CO)c(C=NCCCS(=O)(=O)O)c1O [Example 5]
Resp: 6700 µmol/kg

---

# TEST METHOD NOTES: Solubility
# Type: physicochemical
ENDPOINT: solubility in water

Cc1ncc(CO)c(CNCCCS(=O)(=O)[O-])c1O.[K+]: Soluble
Cc1ncc(CO)c(CNCCS(=O)(=O)[O-])c1O.[Li+]: Soluble
Cc1ncc(CO)c(CNCCS(=O)(=O)[O-])c1O.[K+]: Soluble
